Reported Hemolysis at 100 μg/ml by item:
- Test system: human red blood cells (hRBC)
- test.name: Hemolysis of human red blood cells
- Format: cell-based
- condition.parameters: red cells of human, 1 h, 100
Where a SMILES comes first, the peptide text is derived from it. [ ]: non-standard residue; d: D form. Cha = N[C@@H](CC1CCCCC1)C(=O)O; Tle = CC(C)(C)[C@H](N)C(=O)O; dDab = NCC[C@@H](N)C(=O)O; Orn = NCCC[C@H](N)C(=O)O; Dab = NCC[C@H](N)C(=O)O; Nva = CCC[C@H](N)C(=O)O
# unit: % | format: bare number

molecule	value.unit	Hemolysis at 100 μg/ml
CCC[C@@H]1NC(=O)[C@H](CCN)NC(=O)[C@H](Cc2c[nH]c3ccccc23)NC(=O)[C@H](CCN)NC(=O)[C@@H](CCN)NC(=O)[C@H](CCCN)NC(=O)[C@H](CCN)NC(=O)[C@H](Cc2ccc(O)cc2)NC(=O)[C@H](CO)NC(=O)[C@H](CC(C)C)NC(=O)[C@@H]2CCCN2C(=O)[C@H]2CCCN2C(=O)[C@H](CO)NC(=O)[C@H](C)NC1=O [compound 30] (cyclo(LSY[Dab][Orn][dDab][Dab]W[Dab][Nva]AS[dP]P))	%	1
CC[C@H](C)[C@@H]1NC(=O)[C@@H]2CCCN2C(=O)[C@H]2CCCN2C(=O)[C@H](CO)NC(=O)[C@H](CO)NC(=O)[C@H](C(C)(C)C)NC(=O)[C@H](CCN)NC(=O)[C@H](Cc2c[nH]c3ccccc23)NC(=O)[C@H](CCN)NC(=O)[C@@H](CCN)NC(=O)[C@H](CCCN)NC(=O)[C@H](CCN)NC(=O)[C@H](CC2CCCCC2)NC(=O)[C@H](C)NC1=O [compound 151] (cyclo(IA[Cha][Dab][Orn][dDab][Dab]W[Dab][Tle]SS[dP]P))	%	7

From here, focus on the item given below.
For CC(C)C[C@@H]1NC(=O)[C@@H]2CCCN2C(=O)[C@H]2CCCN2C(=O)[C@H](CO)NC(=O)[C@H](C)NC(=O)[C@H](C(C)(C)C)NC(=O)[C@H](CCN)NC(=O)[C@H](Cc2c[nH]c3ccccc23)NC(=O)[C@H](CCN)NC(=O)[C@@H](CCN)NC(=O)[C@H](CCCNC(=N)N)NC(=O)[C@H](CCN)NC(=O)[C@H](Cc2ccc(O)cc2)NC(=O)[C@H](CO)NC1=O [compound 98] (cyclo(LSY[Dab]R[dDab][Dab]W[Dab][Tle]AS[dP]P)) the molecule record lists Hemolysis at 100 μg/ml as 1
